Tested on: Mycobacterium avium
Test protocol: Antimycobacterial activity against Mycobacterium avium 330/88 after 14 days
Format: functional
Test settings: 336 h
Here the recorded MIC is given for each entry.
Quick note: give the figure in µM, leave out the unit.

I looked up O=C(/N=C/Nc1ccc(C(=O)O)c(O)c1)c1cnccn1 and its MIC for Mycobacterium avium was 32

Param item: O=C(/N=C/N1CCN(c2cc3c(cc2F)c(=O)c(C(=O)O)cn3C2CC2)CC1)c1cnccn1 ; param system: Mycobacterium avium; output MIC: 62.5

Form field, MIC with Mycobacterium avium, item O=C(NN/C=N/C(=O)c1cnccn1)c1ccncc1 : 125

Measured MIC (Mycobacterium avium), entry CCC(CO)N1CCN(C(CC)CO)C1OS(=O)(=O)c1ccc(C)cc1 (stereo unspecified) : 500

Observed MIC, Mycobacterium avium, CN(C)/C=N/NC(=O)c1ccncc1 : 1000

The molecule O=C(N/N=C\N1CCN(c2cc3c(cc2F)c(=O)c(C(=O)O)cn3C2CC2)CC1)c1ccncc1 on Mycobacterium avium: MIC was 125

# MIC measured on Mycobacterium avium for item O=C(N/N=C/NCc1ccccc1)c1ccncc1 = 1000

// MIC (Mycobacterium avium) for O=C(N/N=C/Nc1ccc(C(=O)O)c(O)c1)c1ccncc1 = 125

Form: item O=C(N/N=C/NCc1ccccn1)c1ccncc1 ; test system Mycobacterium avium; MIC: 1000
